Reference source for all entries: ChEMBL document CHEMBL3885881

species: Rattus norvegicus; assay: DrugMatrix - Regimen: Daily Repeat; assay type: toxicity, organism-based, Sprague-Dawley; set-up: regimen Daily Repeat, gender Male, age 6-8 weeks; settings: in vivo, po, 1500 mg/kg, 120 h, tissue Plasma, route oral GAVAGE, dose level High, time 5 day, vehicle .5 % CMC
This listing pairs compounds with measured TOTAL PROTEIN.
Enter the number, and then the unit.

# compound, result-value
records = [
    ("O=c1cc(-c2ccccc2)oc2ccc3ccccc3c12 [BETA-NAPHTHOFLAVONE]", "6.1 G/DL"),
    ("CC(C)(Sc1cc(C(C)(C)C)c(O)c(C(C)(C)C)c1)Sc1cc(C(C)(C)C)c(O)c(C(C)(C)C)c1 [PROBUCOL]", "6.13 G/DL"),
    ("C[C@@H](O)[C@H]1C(=O)N2C(C(=O)O)=C(S[C@@H]3CN[C@H](C(=O)N(C)C)C3)[C@H](C)[C@H]12 [MEROPENEM]", "6.3 G/DL"),
]

Kindly review the next compound as well.
Look at this compound and give its reported TOTAL PROTEIN. Nc1nc2c(c(=O)[nH]1)N(C=O)C(CNc1ccc(C(=O)N[C@@H](CCC(=O)O)C(=O)O)cc1)CN2 (some centres undefined) [LEUCOVORIN]
6.13 G/DL
